species on record: Rattus norvegicus; experiment: DrugMatrix - Regimen: Daily Repeat; format: toxicity, organism-based, Sprague-Dawley; design: regimen Daily Repeat, gender Male, age 6-8 weeks; details: in vivo, po, 0 mg/kg, 120 h, tissue Blood, route oral GAVAGE, dose level Control, time 5 day, […]
LYMPHOCYTE under 90% gets True, anything at or over 90% gets False.

Task item: State whether 90% exceeds LYMPHOCYTE recorded for CC(C)(Oc1ccc(C2CCCc3ccccc32)cc1)C(=O)O (centres undefined) [NAFENOPIN] .
Reply: True

Task item: And for C[C@H]1O[C@@H](O[C@H]2[C@@H](O)C[C@H](O[C@H]3[C@@H](O)C[C@H](O[C@H]4CC[C@@]5(C)[C@H](CC[C@@H]6[C@@H]5CC[C@]5(C)[C@@H](C7=CC(=O)OC7)CC[C@]65O)C4)O[C@@H]3C)O[C@@H]2C)C[C@H](O)[C@@H]1O [DIGITOXIN] ?
Reply: False

----------
species on record: Rattus norvegicus; assay: DrugMatrix - Regimen: Daily Repeat; type: toxicity, organism-based, Sprague-Dawley; parameters: regimen Daily Repeat, gender Male, age 6-8 weeks; conditions: in vivo, po, 0 mg/kg, 120 h, tissue Blood, route oral GAVAGE, dose level Control, time 5 day, vehicle 100 % WATER
Measured parameter: MEAN CORPUSCULAR VOLUME (fL)
Your answer is read as fL, so omit the unit and give the number.

Task item: What does the data say about its MEAN CORPUSCULAR VOLUME? Entry: C[C@@H]1C[C@@H]([C@H](O)CC2CC(=O)NC(=O)C2)C(=O)[C@@H](C)C1 [CYCLOHEXIMIDE]
Reply: 61.27

Task item: And for C[N+](C)(C)CCO.[Cl-] [CHOLINE CHLORIDE] ?
Reply: 64.35

Task item: And for ClC(Cl)Cl [CHLOROFORM] ?
Reply: 63.15

Task item: And for Cc1ncc([N+](=O)[O-])n1CCO ?
Reply: 63.15

Task item: And for COC(=O)C1=C(C)NC(C)=C(C(=O)OCC(C)C)C1c1ccccc1[N+](=O)[O-] (centres undefined) ?
Reply: 63.05

Task item: And for CC(C)NCC(O)COc1cccc2ccccc12 (centres undefined) ?
Reply: 63.72

Task item: And for CC(C)C[C@H](NC(=O)[C@@H](O)[C@H](N)Cc1ccccc1)C(=O)O ?
Reply: 62.55

Task item: And for COc1cc2ncnc(Nc3ccc(F)c(Cl)c3)c2cc1OCCCN1CCOCC1 ?
Reply: 67.62

Task item: And for CC(C)(C)c1ccc(C(=O)CCCN2CCC(OC(c3ccccc3)c3ccccc3)CC2)cc1 ?
Reply: 63.05

----------
species: Rattus norvegicus; test: DrugMatrix - Regimen: Daily Repeat; type: toxicity, organism-based, Sprague-Dawley; parameters: regimen Daily Repeat, gender Male, age 6-8 weeks; settings: in vivo, po, 0 mg/kg, 120 h, tissue Plasma, route oral GAVAGE, dose level Control, time 5 day, […]
Measured parameter: PHOSPHORUS (mg/dL)
Your answer is read as mg/dL, so omit the unit and give the number.

Task item: What does the data say about its PHOSPHORUS? Entry: C[C@H]1O[C@@H](O[C@H]2[C@@H](O)C[C@H](O[C@H]3[C@@H](O)C[C@H](O[C@H]4CC[C@@]5(C)[C@H](CC[C@@H]6[C@@H]5CC[C@]5(C)[C@@H](C7=CC(=O)OC7)CC[C@]65O)C4)O[C@@H]3C)O[C@@H]2C)C[C@H](O)[C@@H]1O
Reply: 10.43

Task item: And for C[C@]12CC[C@@H]3c4ccc(O)cc4CC[C@H]3[C@@H]1CC[C@@H]2O ?
Reply: 10

Task item: And for CC(C)Cc1ccc(C(C)C(=O)O)cc1 (centres undefined) ?
Reply: 11.13

Task item: And for Clc1ccc(Cl)cc1 ?
Reply: 9.03

----------
Could you please report measured ASPARTATE AMINOTRANSFERASE for the items listed next?
species: Rattus norvegicus; experiment: DrugMatrix - Regimen: Daily Repeat; assay type: toxicity, organism-based, Sprague-Dawley; set-up: regimen Daily Repeat, gender Male, age 6-8 weeks; details: in vivo, po, 0 mg/kg, 120 h, tissue Plasma, route oral GAVAGE, dose level Control, time 5 day, vehicle .5 % CMC
Your answer is read as u/L, so omit the unit and give the number.

Task item: What does the data say about its ASPARTATE AMINOTRANSFERASE? Entry: CN1CCC(=C2c3ccccc3C=Cc3ccccc32)CC1
Reply: 63.33

Task item: And for CO[C@H]1/C=C/O[C@@]2(C)Oc3c(C)c(O)c4c(c3C2=O)C2=NC3(CCN(CC(C)C)CC3)NC2=C(NC(=O)/C(C)=C\C=C\[C@H](C)[C@H](O)[C@@H](C)[C@@H](O)[C@@H](C)[C@H](OC(C)=O)[C@@H]1C)C4=O ?
Reply: 81.83

Task item: And for O=[N+]([O-])c1ccccc1 ?
Reply: 71.67

Task item: And for CNC(=C[N+](=O)[O-])NCCSCc1ccc(CN(C)C)o1 ?
Reply: 81.83

Task item: And for O=C1CCC(N2C(=O)c3ccccc3C2=O)C(=O)N1 (configuration not stated) [THALIDOMIDE] ?
Reply: 66.67

Task item: And for CN1C(=O)COc2c(C(=O)NC3CN4CCC3CC4)cc(Cl)cc21 (configuration not stated) ?
Reply: 90.17

Task item: And for CC[C@@H](CO)NCCN[C@@H](CC)CO ?
Reply: 60.83

----------
organism: Rattus norvegicus; test: DrugMatrix - Regimen: Daily Repeat; assay type: toxicity, organism-based, Sprague-Dawley; design: regimen Daily Repeat, gender Male, age 6-8 weeks; settings: in vivo, iv, 0 mg/kg, 120 h, tissue Blood, dose level Control, time 5 day, vehicle 100 % SALINE
Measured parameter: ABSOLUTE LYMPHOCYTE (CELLS/uL)
Your answer is read as CELLS/uL, so omit the unit and give the number.

Task item: What does the data say about its ABSOLUTE LYMPHOCYTE? Entry: CC(=O)N[C@@H]1[C@H](Oc2c3cc4cc2Oc2ccc(cc2Cl)[C@@H](O[C@@H]2O[C@@H](CO)[C@@H](O)[C@H](O)[C@@H]2NC(C)=O)[C@@H]2NC(=O)[C@H](NC(=O)[C@@H]4NC(=O)[C@H]4NC(=O)[C@@H](Cc5ccc(c(Cl)c5)O3)NC(=O)[C@H](N)c3ccc(O)c(c3)Oc3cc(O)cc4c3)c3ccc(O)c(c3)-c3c(O[C@H]4O[C@H](CO)[C@@H](O)[C@@H](O)[C@@H]4O)cc(O)cc3[C@@H](C(=O)O)NC2=O)O[C@@H](CO)[C@@H](O)[C@@H]1O
Reply: 13593.17

Task item: And for COc1cccc2c1C(=O)c1c(O)c3c(c(O)c1C2=O)C[C@@](O)(C(=O)CO)C[C@@H]3O[C@H]1C[C@H](N)[C@H](O)[C@H](C)O1 ?
Reply: 7739.83

Task item: And for COc1cccc2c1C(=O)c1c(O)c3c(c(O)c1C2=O)C[C@@](O)(C(=O)CO)C[C@@H]3O[C@H]1C[C@H](N)[C@@H](O)[C@H](C)O1 [EPIRUBICIN] ?
Reply: 10653.67

Task item: And for CC[C@]1(O)C[C@@H]2CN(CCc3c([nH]c4ccccc34)[C@@](C(=O)OC)(c3cc4c(cc3OC)N(C)[C@H]3[C@@](O)(C(=O)OC)[C@H](OC(C)=O)[C@]5(CC)C=CCN6CC[C@]43[C@@H]65)C2)C1 ?
Reply: 11849.17

Task item: And for CCc1c2c(nc3ccc(OC(=O)N4CCC(N5CCCCC5)CC4)cc13)-c1cc3c(c(=O)n1C2)COC(=O)[C@]3(O)CC ?
Reply: 10653.67

Task item: And for CCC1=C[C@@H]2CN(C1)Cc1c([nH]c3ccccc13)[C@@](C(=O)OC)(c1cc3c(cc1OC)N(C)[C@H]1[C@@](O)(C(=O)OC)[C@H](OC(C)=O)[C@]4(CC)C=CCN5CC[C@]31[C@@H]54)C2 ?
Reply: 14562

----------
species: Rattus norvegicus; assay: DrugMatrix - Regimen: Daily Repeat; type: toxicity, organism-based, Sprague-Dawley; set-up: regimen Daily Repeat, gender Male, age 6-8 weeks; settings: in vivo, po, 1500 mg/kg, 72 h, tissue Plasma, route oral GAVAGE, dose level High, time 3 day, vehicle .5 % CMC
Could you please report measured CHLORIDE for the items listed next?
Your answer is read as MEQ/L, so omit the unit and give the number.

Task item: What does the data say about its CHLORIDE? Entry: NC(=O)c1cnccn1 [PYRAZINAMIDE]
Reply: 103.33

Task item: And for Cc1cc(=O)n(-c2ccccc2)n1C [ANTIPYRINE] ?
Reply: 99.33

Task item: And for CO[C@H]1/C=C/O[C@@]2(C)Oc3c(C)c(O)c4c(c3C2=O)C2=NC3(CCN(CC(C)C)CC3)NC2=C(NC(=O)/C(C)=C\C=C\[C@H](C)[C@H](O)[C@@H](C)[C@@H](O)[C@@H](C)[C@H](OC(C)=O)[C@@H]1C)C4=O [RIFABUTIN] ?
Reply: 96.33

Task item: And for C[C@]1(Cn2ccnn2)[C@H](C(=O)O)N2C(=O)C[C@H]2S1(=O)=O [TAZOBACTAM] ?
Reply: 102.67

Task item: And for Cc1ccc(S(=O)(=O)NC(=O)NN2CC3CCCC3C2)cc1 (configuration not stated) [GLICLAZIDE] ?
Reply: 100.67

Task item: And for CNC(=C[N+](=O)[O-])NCCSCc1ccc(CN(C)C)o1 [RANITIDINE] ?
Reply: 101.33

Task item: And for O=C(N[C@H](CO)[C@H](O)c1ccc([N+](=O)[O-])cc1)C(Cl)Cl [CHLORAMPHENICOL] ?
Reply: 101.33
